- Test system: upland rice (Oryza sp., var. Tebonnet, RICE)
- method: Pre-emerge test, crop safety
- Format: in vivo
- reported.conditions: pre-emerge, 250 g ai/ha, 14 days after application, scale 0-100
value.kind: phytotoxicity rating RICE (crop damage)
API note: the answer field is a bare number with no unit suffix.

*Q* Give the reported phytotoxicity rating RICE (crop damage) for COc1c(Cl)cc(F)c(-n2c(=O)cc(C(F)(F)F)n(C)c2=O)c1NC(=O)c1ccc2c(Br)cccc2c1 [2-158] (system: upland rice (Oryza sp., var. Tebonnet, RICE)).
*A* 10

*Q* Query Cn1c(C(F)(F)F)cc(=O)n(-c2ccc(C#N)cc2NC(=O)C=Cc2ccccc2)c1=O [2-141] next
*A* 70

*Q* Query COc1c(Cl)cc(F)c(-n2c(=O)cc(C(F)(F)F)n(C)c2=O)c1NC(=O)C=Cc1ccccc1F [2-125] next
*A* 45

*Q* Query COc1c(Cl)cc(F)c(-n2c(=O)cc(C(F)(F)F)n(C)c2=O)c1NC(=O)CSc1ccc2ccccc2c1 [2-169] next
*A* 40

*Q* Query COc1c(Cl)cc(F)c(-n2c(=O)cc(C(F)(F)F)n(C)c2=O)c1NC(=O)CSC(C)C [2-173] next
*A* 50

*Q* Query COc1c(Cl)cc(F)c(-n2c(=O)cc(C(F)(F)F)n(C)c2=O)c1NC(=O)c1ccc2ccccc2c1OC [2-153] next
*A* 20

*Q* Query COc1c(C#N)cc(F)c(-n2c(=O)cc(C(F)(F)F)n(C)c2=O)c1NC(=O)C=Cc1ccccc1 [2-179] next
*A* 60

*Q* Query Cn1c(C(F)(F)F)cc(=O)n(-c2ccc(C(F)(F)F)cc2NC(=O)c2ccc3ccccc3c2)c1=O [2-149] next
*A* 50

====

- Test system: velvetleaf (Abutilon theophrasti, ABUTH)
- method: Pre-emerge test, greenhouse herbicide activity screening
- Assay type: in vivo
- reported.conditions: pre-emerge, 250 g ai/ha, 14 days after application, rating scale 0-100
value.kind: phytotoxicity rating ABUTH
API note: the answer field is a bare number with no unit suffix.

*Q* I would be grateful if you could share the reported phytotoxicity rating ABUTH for COc1c(Cl)cc(F)c(-n2c(=O)cc(C(F)(F)F)n(C)c2=O)c1NN=CC(C)c1ccccc1 (stereo not shown) [15-17] .
*A* 100

*Q* Query Cn1c(C(F)(F)F)cc(=O)n(-c2ccc(Cl)cc2/C=C/c2ccc3ccccc3c2)c1=O [14-59] next
*A* 0

*Q* Query COc1c(Cl)cc(F)c(-n2c(=O)cc(C(F)(F)F)n(C)c2=O)c1O [Compound 16-6] next
*A* 100

*Q* Query COc1cc(Cl)cc(Cl)c1-n1c(=O)cc(C(F)(F)F)n(C)c1=O [16-2] next
*A* 100

*Q* Query COc1c(Cl)cc(F)c(-n2c(=O)cc(C(F)(F)F)n(C)c2=O)c1NN=C(C(F)(F)F)C(F)(F)F [15-21] next
*A* 100

*Q* Query C=CC=NNc1c(OC)c(Cl)cc(F)c1-n1c(=O)cc(C(F)(F)F)n(C)c1=O [15-10] next
*A* 100

*Q* Query CCOC(=O)C(Cl)Cc1cc(Cl)cc(F)c1-n1nc(C)n(C(F)F)c1=O (stereo not shown) [14-52] next
*A* 100

====

- Tested on: velvetleaf (Abutilon theophrasti, ABUTH)
- method: Post-emerge test, greenhouse herbicide activity screening
- Assay type: in vivo
- reported.conditions: 63 g ai/ha; post-emerge; 14 days after application; rating scale 0-100
value.kind: Post-emerge Herbicidal Activity ABUTH (phytotoxicity rating)
API note: the answer field is a bare number with no unit suffix.

*Q* Give the reported Post-emerge Herbicidal Activity ABUTH (phytotoxicity rating) for `COCC(C)=NNc1c(OC)c(Cl)cc(F)c1-n1c(=O)cc(C(F)(F)F)n(C)c1=O` (system: velvetleaf (Abutilon theophrasti, ABUTH)).
*A* 100

*Q* Query C#CCOC(=O)C(C)(Cl)Cc1c(OC)c(Cl)cc(F)c1-n1c(=O)cc(C(F)(F)F)n(C)c1=O (stereo not drawn) next
*A* 100

*Q* Query `Cn1c(C(F)(F)F)cc(=O)n(-c2c(O)cc(Cl)cc2Cl)c1=O` next
*A* 70

*Q* Query `COc1c(Cl)cc(F)c(-n2c(=O)cc(C(F)(F)F)n(C)c2=O)c1NN=Cc1ccc2ccccc2c1` next
*A* 100

*Q* Query CCOC(=O)C(Cl)Cc1c(OC)c(Cl)cc(F)c1-c1nn(C)c(C(F)(F)F)c1Cl (stereo not drawn) next
*A* 70

*Q* Query CCOC(=O)C(Cl)Cc1c(OCC)c(Cl)cc(F)c1-n1c(=O)cc(C(F)(F)F)n(C)c1=O (stereo not drawn) next
*A* 90

====

Please provide measured Post-emerge Herbicidal Activity, phytotoxicity rating SORHA for the entries that follow.
- Test system: johnsongrass (Sorghum halepense, SORHA)
- method: Post-emerge test, greenhouse herbicide activity screening
- Assay type: in vivo
- reported.conditions: Rate 250 g ai/ha; rating scale 0-100 (0 no damage, 100 complete death); 14 days after application
API note: the answer field is a bare number with no unit suffix.

*Q* Give the reported Post-emerge Herbicidal Activity, phytotoxicity rating SORHA for CCOC(=O)C(Cl)Cc1c(C)c(Cl)cc(F)c1-n1c(=O)cc(C(F)(F)F)n(C)c1=O (centres unmarked) (system: johnsongrass (Sorghum halepense, SORHA)).
*A* 0

*Q* Query CCCOC(=O)C(Cl)Cc1c(OC)c(Cl)cc(F)c1-n1c(=O)cc(C(F)(F)F)n(C)c1=O (single isomer, unassigned) [14-6] next
*A* 65

*Q* Query COc1c(Cl)cc(F)c(-n2c(=O)cc(C(F)(F)F)n(C)c2=O)c1CC(Cl)C(=O)OCC(Br)CBr (single isomer, unassigned) [14-31] next
*A* 20

*Q* Query CCCOC(=O)C(C)(Cl)Cc1c(OC)c(Cl)cc(F)c1-n1c(=O)cc(C(F)(F)F)n(C)c1=O (centres unmarked) next
*A* 70

*Q* Query C=COC(=O)C(C)(Cl)Cc1c(OC)c(Cl)cc(F)c1-n1c(=O)cc(C(F)(F)F)n(C)c1=O (centres unmarked) next
*A* 95

*Q* Query CCCCCOC(=O)C(Cl)Cc1c(OC)c(Cl)cc(F)c1-n1c(=O)cc(C(F)(F)F)n(C)c1=O (single isomer, unassigned) next
*A* 99

*Q* Query COc1c(Cl)cc(F)c(-n2c(=O)cc(C(F)(F)F)n(C)c2=O)c1CC(C)(Cl)C(=O)OC(C(F)(F)F)C(F)(F)F (centres unmarked) next
*A* 90

*Q* Query CCCOC(=O)C(Cl)Cc1c(OC)c(Cl)cc(F)c1-n1c(=O)cc(C(F)(F)F)n(C)c1=O (single isomer, unassigned) [14-7] next
*A* 90

====

Please provide measured Pre-emerge Herbicidal Activity CORN for the entries that follow.
- System: field corn (Zea mays L., var. Dekalb 535, CORN)
- method: Pre-emerge test, crop safety
- Format: in vivo
- reported.conditions: crop damage, pre-emerge, rate 63 g ai/ha, phytotoxicity rating 0-100 at 14 days after application

*Q* I would be grateful if you could share the reported Pre-emerge Herbicidal Activity CORN for `COc1c(Cl)cc(F)c(-n2ncc(C(F)(F)F)c(C)c2=O)c1NC(=O)c1ccc2ccccc2c1` .
*A* 0

*Q* Query `Cc1cccc(COC(=O)Nc2c(C)c(Cl)cc(F)c2-n2c(=O)cc(C(F)(F)F)n(C)c2=O)c1` next
*A* 45

*Q* Query `Cc1c(Cl)cc(F)c(-n2c(=O)cc(C(F)(F)F)n(C)c2=O)c1NC(=O)OCc1ccc(Cl)cc1Cl` next
*A* 0

*Q* Query `Cc1cc(C)c(COC(=O)Nc2c(C)c(Cl)cc(F)c2-n2c(=O)cc(C(F)(F)F)n(C)c2=O)c(C)c1` next
*A* 0

*Q* Query `COc1cccc(OC)c1OC(=O)Nc1c(C)c(Cl)cc(F)c1-n1c(=O)cc(C(F)(F)F)n(C)c1=O` next
*A* 5

*Q* Query `C#CCOc1c(Cl)cc(F)c(-n2nnn(CCCF)c2=O)c1N` next
*A* 0

*Q* Query `CCC(=O)Nc1c(Cl)cc(Cl)c(-n2nc(C)n(C(F)F)c2=O)c1N` next
*A* 0

*Q* Query `Nc1c(OC2CCCC2)c(Cl)cc(F)c1N1C(=O)C2=C(CCCC2)C1=O` next
*A* 0

*Q* Query `Cc1c(Cl)cc(F)c(-n2c(=O)cc(C(F)(F)F)n(C)c2=O)c1NC(=O)OCCc1ccccc1` next
*A* 0

*Q* Query `Cc1ccc(COC(=O)Nc2c(C)c(Cl)cc(F)c2-n2c(=O)cc(C(F)(F)F)n(C)c2=O)cc1` next
*A* 0

*Q* Query `COc1c(Cl)cc(F)c(-n2nnn(CCCF)c2=O)c1NC(=O)COCc1ccccc1` next
*A* 10

*Q* Query `CC(C)Oc1c(Cl)cc(Cl)c(-n2nnn(CCCF)c2=O)c1N` next
*A* 0

*Q* Query `Cc1c(Cl)cc(F)c(-n2c(=O)cc(C(F)(F)F)n(C)c2=O)c1NC(=O)OCc1ccco1` next
*A* 90

*Q* Query `Cc1c(Cl)cc(F)c(-n2c(=O)cc(C(F)(F)F)n(C)c2=O)c1NC(=O)OCc1ccc(Cl)cc1` next
*A* 0

*Q* Query `COc1ccc(COC(=O)Nc2c(C)c(Cl)cc(F)c2-n2c(=O)cc(C(F)(F)F)n(C)c2=O)cc1OC` next
*A* 0

*Q* Query `COc1ccccc1COC(=O)Nc1c(C)c(Cl)cc(F)c1-n1c(=O)cc(C(F)(F)F)n(C)c1=O` next
*A* 0

*Q* Query `COc1c(Cl)cc(F)c(-n2ncc(C(F)(F)F)cc2=O)c1NC(=O)c1ccc2ccccc2c1` next
*A* 0

*Q* Query `Cc1nn(-c2c(F)cc(Cl)cc2NC(=O)c2ccc(F)cc2F)c(=O)n1C(F)F` next
*A* 0

*Q* Query `Cc1c(Cl)cc(F)c(-n2c(=O)cc(C(F)(F)F)n(C)c2=O)c1NC(=O)SCc1ccccc1` next
*A* 0

*Q* Query `Cc1c(Cl)cc(F)c(-n2c(=O)cc(C(F)(F)F)n(C)c2=O)c1NC(=O)OCc1ccc([N+](=O)[O-])cc1` next
*A* 0

*Q* Query `CC(C)Oc1c(Cl)cc(F)c(N2C(=O)C3=C(CCCC3)C2=O)c1NC(=O)c1ccc(F)cc1F` next
*A* 0

*Q* Query `Cc1nn(-c2c(Cl)cc(Cl)cc2NC(=O)c2ccc(F)cc2F)c(=O)n1C(F)F` next
*A* 0

*Q* Query `C#CCOc1c(Cl)cc(F)c(N2C(=O)C3=C(CCCC3)C2=O)c1NC(=O)c1ccc(F)cc1F` next
*A* 0

*Q* Query `C#CCOc1c(Cl)cc(F)c(N2C(=O)C3=C(CCCC3)C2=O)c1N` next
*A* 10

*Q* Query `C=Cc1ccc(C(=O)Nc2c(OC)c(Cl)cc(F)c2N2C(=O)C3=C(CCCC3)C2=O)cc1` next
*A* 0

*Q* Query `COc1c(Cl)cc(F)c(-n2nnn(CCCF)c2=O)c1NC(=O)c1ccc2ccccc2c1` next
*A* 0

*Q* Query Nc1c(O)c(Cl)cc(F)c1N1C(=O)C2CCCCN2C1=S (single isomer, unassigned) next
*A* 40

*Q* Query `COc1c(Cl)cc(F)c(N2C(=O)C3=C(CCCC3)C2=O)c1N` next
*A* 0

*Q* Query `COc1c(Cl)cc(F)c(-n2c(=O)n3n(c2=O)CCCC3)c1N` next
*A* 0

*Q* Query `O=C(Nc1cc(Cl)ccc1-n1c(=O)n2n(c1=O)CCCC2)c1ccc2ccccc2c1` next
*A* 0

*Q* Query `COc1c(Cl)cc(F)c(-n2c(=O)n3n(c2=O)CCCC3)c1NC(C)=O` next
*A* 0

*Q* Query `O=C(Nc1cc(Cl)ccc1N1C(=O)C2=C(CCCC2)C1=O)c1ccc2ccccc2c1` next
*A* 0

*Q* Query `Cc1ccccc1COC(=O)Nc1c(C)c(Cl)cc(F)c1-n1c(=O)cc(C(F)(F)F)n(C)c1=O` next
*A* 35

Measured values drawn from patent US6355799B1 for this set.
